All values here come from patent US20250108139A1.

Tested on: PSMA-positive 22rv1 tumor-bearing mouse
Assay: 177Lu labeling and animal biodistribution experiment, gamma counter
Format: in vivo
Conditions: 177Lu-labeled compound, 24 h after tail vein injection, n = 2
OUTCOME MEASURE: Muscle uptake (% ID/g)
# output: bare number, implied unit % ID/g

Solved cases below.
O=C(O)CC[C@H](NC(=O)NC(CCCCNC(=O)[C@H](Cc1ccc2ccccc2c1)NC(=O)[C@H]1CC[C@H](NC(=O)CCC(=O)NCC(=O)N2CN(C(=O)CNC(=O)CCC(=O)N[C@H]3CC[C@H](C(=O)N[C@@H](Cc4ccc5ccccc5c4)C(=O)NCCCC[C@H](NC(=O)N[C@@H](CCC(=O)O)C(=O)O)C(=O)O)CC3)CN(C(=O)CNC(=O)CN3CCN(CC(=O)O)CCN(CC(=O)O)CCN(CC(=O)O)CC3)C2)CC1)C(=O)O)C(=O)O (stereo partly shown)    0.060
O=C(O)CC[C@H](NC(=O)NC(CCCCNC(=O)[C@H](Cc1ccc2ccccc2c1)NC(=O)c1ccc(C2CCN(C(=O)CNC(=O)c3cc(NC(=O)COCCOCCNC(=O)CN4CCN(CC(=O)O)CCN(CC(=O)O)CCN(CC(=O)O)CC4)cc(C(=O)NCC(=O)N4CCC(c5ccc(C(=O)N[C@@H](Cc6ccc7ccccc7c6)C(=O)NCCCC[C@H](NC(=O)N[C@@H](CCC(=O)O)C(=O)O)C(=O)O)cc5)CC4)c3)CC2)cc1)C(=O)O)C(=O)O (stereo partly shown)    0.465
O=C(O)CC[C@H](NC(=O)NC(CCCCNC(=O)[C@H](Cc1ccc2ccccc2c1)NC(=O)[C@H]1CC[C@H](NC(=O)CCC(=O)NCCCC[C@H](NC(=O)CCC(=O)N[C@H]2CC[C@H](C(=O)N[C@@H](Cc3ccc4ccccc4c3)C(=O)NCCCC[C@H](NC(=O)N[C@@H](CCC(=O)O)C(=O)O)C(=O)O)CC2)C(=O)NCCNC(=O)CN2CCN(CC(=O)O)CCN(CC(=O)O)CCN(CC(=O)O)CC2)CC1)C(=O)O)C(=O)O (stereo partly shown)    0.045
O=C(O)CC[C@H](NC(=O)NC(CCCCNC(=O)[C@H](Cc1ccc2ccccc2c1)NC(=O)[C@H]1CC[C@H](NC(=O)COCCOCCNC(=O)c2cc(NC(=O)CCCCCCCNC(=O)CN3CCN(CC(=O)O)CCN(CC(=O)O)CCN(CC(=O)O)CC3)cc(C(=O)NCCOCCOCC(=O)N[C@H]3CC[C@H](C(=O)N[C@@H](Cc4ccc5ccccc5c4)C(=O)NCCCC[C@H](NC(=O)N[C@@H](CCC(=O)O)C(=O)O)C(=O)O)CC3)c2)CC1)C(=O)O)C(=O)O (stereo partly shown)    0.04
O=C(O)CC[C@H](NC(=O)N[C@@H](CCCCNC(=O)[C@H](Cc1ccc2ccccc2c1)NC(=O)c1ccc(C2CCN(C(=O)CCC(=O)NCC(=O)N3CN(C(=O)CNC(=O)CCC(=O)N4CCC(c5ccc(C(=O)N[C@@H](Cc6ccc7ccccc7c6)C(=O)NCCCC[C@H](NC(=O)N[C@@H](CCC(=O)O)C(=O)O)C(=O)O)cc5)CC4)CN(C(=O)CNC(=O)CN4CCN(CC(=O)O)CCN(CC(=O)O)CCN(CC(=O)O)CC4)C3)CC2)cc1)C(=O)O)C(=O)O    0.135
O=C(O)CC[C@H](NC(=O)NC(CCCCNC(=O)[C@H](Cc1ccc2ccccc2c1)NC(=O)c1ccc(C2CCN(C(=O)CCC(=O)NCCCC[C@H](NC(=O)CCC(=O)N3CCC(c4ccc(C(=O)N[C@@H](Cc5ccc6ccccc6c5)C(=O)NCCCC[C@H](NC(=O)N[C@@H](CCC(=O)O)C(=O)O)C(=O)O)cc4)CC3)C(=O)NCCNC(=O)CN3CCN(CC(=O)O)CCN(CC(=O)O)CCN(CC(=O)O)CC3)CC2)cc1)C(=O)O)C(=O)O (stereo partly shown)    0.175

What the record says about O=C(O)CC[C@H](NC(=O)N[C@@H](CCCCNC(=O)[C@H](Cc1ccc2ccccc2c1)NC(=O)c1ccc2c(c1)CCN(C(=O)CCC(=O)NCC(=O)N1CN(C(=O)CNC(=O)CCC(=O)N3CCc4cc(C(=O)N[C@@H](Cc5ccc6ccccc6c5)C(=O)NCCCC[C@H](NC(=O)N[C@@H](CCC(=O)O)C(=O)O)C(=O)O)ccc4C3)CN(C(=O)CNC(=O)CN3CCN(CC(=O)O)CCN(CC(=O)O)CCN(CC(=O)O)CC3)C1)C2)C(=O)O)C(=O)O : Muscle uptake is 0.1

Sample O=C(O)CC[C@H](NC(=O)N[C@@H](CCCCNC(=O)[C@H](Cc1ccc2ccccc2c1)NC(=O)c1ccc2c(c1)CCN(C(=O)CCC(=O)NCCCC[C@H](NC(=O)CCC(=O)N1CCc3cc(C(=O)N[C@@H](Cc4ccc5ccccc5c4)C(=O)NCCCC[C@H](NC(=O)N[C@@H](CCC(=O)O)C(=O)O)C(=O)O)ccc3C1)C(=O)NCCNC(=O)CN1CCN(CC(=O)O)CCN(CC(=O)O)CCN(CC(=O)O)CC1)C2)C(=O)O)C(=O)O ; Muscle uptake observed: 0.055

The recorded Muscle uptake for O=C(O)CC[C@H](NC(=O)N[C@@H](CCCCNC(=O)[C@H](Cc1ccc2ccccc2c1)NC(=O)c1ccc2c(c1)CCN(C(=O)CN1CCN(CC(=O)O)CCN(CC(=O)O)CCN(CC(=O)O)CC1)C2)C(=O)O)C(=O)O [Compound E-3, reference compound] is 0.035

Reported Muscle uptake ( O=C(O)CC[C@H](NC(=O)NC(CCCCNC(=O)[C@H](Cc1ccc2ccccc2c1)NC(=O)c1ccc2c(c1)CCN(C(=O)CNC(=O)c1cc(NC(=O)CNC(=O)CN3CCN(CC(=O)O)CCN(CC(=O)O)CCN(CC(=O)O)CC3)cc(C(=O)NCC(=O)N3CCc4cc(C(=O)N[C@@H](Cc5ccc6ccccc6c5)C(=O)NCCCC[C@H](NC(=O)N[C@@H](CCC(=O)O)C(=O)O)C(=O)O)ccc4C3)c1)C2)C(=O)O)C(=O)O (stereo partly shown) ) = 0.73
